- STUDY_SYSTEM: T1, human PD-1 (soluble analyte in SPR) (human, UniProt Q15116 25-170, limits assumed)
- T1 construct: also called CD279; PDCD1
- T1 sequence (Q15116 25-170 limits assumed): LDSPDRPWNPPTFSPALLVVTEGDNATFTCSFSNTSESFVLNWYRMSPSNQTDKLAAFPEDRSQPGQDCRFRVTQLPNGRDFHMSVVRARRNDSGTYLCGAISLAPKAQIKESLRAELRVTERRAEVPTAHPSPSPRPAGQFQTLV
- PROTOCOL_DETAILS: SPR (ProteOn XPR36), mAb captured on anti-human IgG Fc, PD-1 as analyte, 25 C
OBSERVATION_TYPE: kon

// query Report kon for PD1B505 (antibody, human IgG1, kappa, V domains shown, Parental mouse antibody cloned as chimeric human IgG1; Bin 1; also called VH PD1H93; VL PD1L30) VH: DVQLQESGPELKKPGETVKISCKASGYTFTDYSMHWVKQAPGKGLKWMGWINIETGEPTYADDFKGRFAFSLETSASTAYLQINNLKNEDTATYFCARDYYGTYFYAMDYWGQGTTLTVSS VL: QIVLTQSPAIMSASLGERVTMTCTASSSVSSSYLHWYQQKPGSSPKLWIYSTSNLASGVPARFSGSGSGTSYSLTISSMEAEDAATYYCHQYHRSPLTFGAGTKLELKR please.
// result 81100 M⁻¹ s⁻¹
